Taken from paper PMC8330742.

# Test system: SN12C
# EXPERIMENT SUMMARY: NCI-60 SRB screen
# Assay type: cell-based, human
# CONDITION SUMMARY: Homo sapiens, SN12C; single dose 10^−5 M; SN 12 C, Renal cancer; read-out: Growth inhibition (%)
MEASURED QUANTITY: inhibition at 10 µM
Note: a bare number is incomplete; add the unit.

{"MOLECULE": "CCN1CCN(C2=C(C#N)c3c(sc4c(F)cccc34)C(c3cccc([N+](=O)[O-])c3)N2)CC1 (stereo not drawn)", "inhibition at 10 µM": "1.95%"}
{"MOLECULE": "N#CC1=C(N2CCCCC2)NC(c2cccc([N+](=O)[O-])c2)c2sc3c(F)cccc3c21 (stereo not drawn)", "inhibition at 10 µM": "3.7%"}
{"MOLECULE": "O=[N+]([O-])c1cccc(C2NC(N3CCCCC3)=C(Cl)c3c2sc2c(F)cccc32)c1 (stereo not drawn)", "inhibition at 10 µM": "3.66%"}
{"MOLECULE": "CCN1CCN(C2=C(Cl)c3c(sc4c(F)cccc34)C(c3cccc([N+](=O)[O-])c3)N2)CC1 (stereo not drawn)", "inhibition at 10 µM": "2.25%"}
{"MOLECULE": "O=[N+]([O-])c1cccc(C2NC(N3CCOCC3)=C(Cl)c3c2sc2c(F)cccc32)c1 (stereo not drawn)", "inhibition at 10 µM": "3.71%"}
{"MOLECULE": "N#CC1=C(Cl)NC(c2cccc([N+](=O)[O-])c2)c2sc3c(F)cccc3c21 (stereo not drawn)", "inhibition at 10 µM": "4.43%"}
{"MOLECULE": "O=[N+]([O-])c1cccc(C2NC3=C(Nc4ccccc4N3)c3c2sc2c(F)cccc32)c1 (stereo not drawn)", "inhibition at 10 µM": "1.71%"}
{"MOLECULE": "N#CC1=C(Nc2ccccc2F)NC(c2cccc([N+](=O)[O-])c2)c2sc3c(F)cccc3c21 (stereo not drawn)", "inhibition at 10 µM": "0.49%"}

Query molecule follows.
Data request: Provide measured inhibition at 10 µM on SN12C for N#CC1=C(N2CCOCC2)NC(c2cccc([N+](=O)[O-])c2)c2sc3c(F)cccc3c21 (stereo not drawn) please.
Data returned: 6.28%
